pIC50: −log10 of the molar value.
Assembled from different publications: pIC50 for Myosin light chain kinase 2, skeletal/cardiac muscle (Homo sapiens, UniProt Q9H1R3).
The threshold is inclusive: pIC50 of exactly 5 counts as condition met; values below receive condition not met.

[ask] Has COC(=O)Nc1cc(-c2ccc(OC[C@@](C)(N)CC(C)C)c(C)n2)ccn1 a recorded pIC50 greater than or equal to 5?
[reply] condition met

[ask] Has CC(C)C[C@](C)(N)COc1cnc(-c2ccnc(C(F)F)c2)cc1C(F)F a recorded pIC50 greater than or equal to 5?
[reply] condition met

[ask] Has Cc1cc(-c2cnc(Nc3cc(Cl)cc(Cl)c3)nc2NC2CCC(N(C)C)CC2)on1 (stereo not drawn) a recorded pIC50 greater than or equal to 5?
[reply] condition met

[ask] Has COC(=O)Nc1cc(-c2ccc(OC[C@@](C)(N)CC(C)C)c(Cl)n2)ccn1 a recorded pIC50 greater than or equal to 5?
[reply] condition met

[ask] Has N#CCNC(=O)c1ccc(-c2ccnc(Nc3ccc(N4CCOCC4)cc3)n2)cc1 a recorded pIC50 greater than or equal to 5?
[reply] condition met

[ask] Has CN1CCC(NC(=O)c2cnc(Nc3cc(Cl)cc(Cl)c3)nc2N[C@@H]2COC[C@H]2O)CC1 a recorded pIC50 greater than or equal to 5?
[reply] condition not met
